For each of the molecules below, state its relative viability.
Test system: NCI-H2170
Assay Summary: relative viability (nuclei count vs DMSO), 5 days (fraction); higher = more cells survive
Condition Label: first compound 0.03162 µM
Note: the reply should be a number with no unit written.

So, Cc1cn(-c2cc(NC(=O)c3ccc(C)c(Nc4nccc(-c5cccnc5)n4)c3)cc(C(F)(F)F)c2)cn1 [Nilotinib] + CCNC(=O)c1noc(-c2cc(C(C)C)c(O)cc2O)c1-c1ccc(CN2CCOCC2)cc1 [Luminespib] (partner 0.01 µM) ? Its relative viability was 0.328

So, Cc1cn(-c2cc(NC(=O)c3ccc(C)c(Nc4nccc(-c5cccnc5)n4)c3)cc(C(F)(F)F)c2)cn1 [Nilotinib] + CC(=O)c1c(C)c2cnc(Nc3ccc(N4CCNCC4)cn3)nc2n(C2CCCC2)c1=O [Palbociclib] (partner 0.5 µM) ? Its relative viability was 0.379

----------
Test system: RERF-LC-KJ
Assay Summary: relative viability (nuclei count vs DMSO), 5 days (fraction); higher = more cells survive
Condition Label: first compound 2 µM
Recorded Metric: relative viability
Note: the reply should be a number with no unit written.

Noted relative viability for CN1CCN(CCOc2cc(OC3CCOCC3)c3c(Nc4c(Cl)ccc5c4OCO5)ncnc3c2)CC1 [Saracatinib] + Nc1nc2[nH]cc(CCc3ccc(C(=O)N[C@@H](CCC(=O)O)C(=O)O)cc3)c2c(=O)[nH]1 [Pemetrexed] (partner 0.2 µM) , tested on RERF-LC-KJ: 0.441

Noted relative viability for CN1CCN(CCOc2cc(OC3CCOCC3)c3c(Nc4c(Cl)ccc5c4OCO5)ncnc3c2)CC1 [Saracatinib] + CC1(C)CCC(c2ccc(Cl)cc2)=C(CN2CCN(c3ccc(C(=O)NS(=O)(=O)c4ccc(N[C@H](CCN5CCOCC5)CSc5ccccc5)c(S(=O)(=O)C(F)(F)F)c4)cc3)CC2)C1 [Navitoclax] (partner 0.5 µM) , tested on RERF-LC-KJ: 0.934

Noted relative viability for CN1CCN(CCOc2cc(OC3CCOCC3)c3c(Nc4c(Cl)ccc5c4OCO5)ncnc3c2)CC1 [Saracatinib] + N=C(N)NC(=N)NCCc1ccccc1 [Phenformin] (partner 250 µM) , tested on RERF-LC-KJ: 0.361

Noted relative viability for Cc1csc(=NC2CCCCC2)n1/N=C/c1ccc(O)c(O)c1O [MIM1] + CCNC(=O)c1noc(-c2cc(C(C)C)c(O)cc2O)c1-c1ccc(CN2CCOCC2)cc1 [Luminespib] (partner 0.01 µM) , tested on RERF-LC-KJ: 0.73

Noted relative viability for CN1CCN(CCOc2cc(OC3CCOCC3)c3c(Nc4c(Cl)ccc5c4OCO5)ncnc3c2)CC1 [Saracatinib] + CC(=O)Nc1cccc(-n2c(=O)n(C3CC3)c(=O)c3c(Nc4ccc(I)cc4F)n(C)c(=O)c(C)c32)c1 [Trametinib] (partner 0.02 µM) , tested on RERF-LC-KJ: 0.687

Noted relative viability for CN1CCN(CCOc2cc(OC3CCOCC3)c3c(Nc4c(Cl)ccc5c4OCO5)ncnc3c2)CC1 [Saracatinib] + Cc1cc(Nc2cc(N3CCN(C)CC3)nc(Sc3ccc(NC(=O)C4CC4)cc3)n2)n[nH]1 [Tozasertib] (partner 0.1 µM) , tested on RERF-LC-KJ: 0.363

Noted relative viability for Cc1csc(=NC2CCCCC2)n1/N=C/c1ccc(O)c(O)c1O [MIM1] + Cc1nc(NC(=O)N2CCC[C@H]2C(N)=O)sc1-c1ccnc(C(C)(C)C(F)(F)F)c1 [Alpelisib] (partner 2 µM) , tested on RERF-LC-KJ: 0.704

Noted relative viability for Cc1csc(=NC2CCCCC2)n1/N=C/c1ccc(O)c(O)c1O [MIM1] + N=C(N)NC(=N)NCCc1ccccc1 [Phenformin] (partner 250 µM) , tested on RERF-LC-KJ: 0.348

Noted relative viability for CN1CCN(CCOc2cc(OC3CCOCC3)c3c(Nc4c(Cl)ccc5c4OCO5)ncnc3c2)CC1 [Saracatinib] + CS(=O)(=O)CCNCc1ccc(-c2ccc3ncnc(Nc4ccc(OCc5cccc(F)c5)c(Cl)c4)c3c2)o1 [Lapatinib] (partner 2 µM) , tested on RERF-LC-KJ: 1.02
